Where these numbers come from: PubChem BioAssay (NCI)

Field: growth. Provide a value for each of the compounds that follow.
System: SR leukemia
Test: NCI-60 one-dose screen, 48 h (100 = growth as untreated, 0 = no growth, -100 = all killed)
Conditions: 10 µM unless noted
Compounds without any hit were thinned out: in the full panel of roughly 83,000, 20% have a hit.
The response must be a number in % with no trailing unit.

# input Provide value of growth for this record tested with SR leukemia: `COc1ccc(-c2[nH]nc(N)c2-c2cc(OC)c(OC)c(OC)c2)cc1`
# output -23.7

# input Provide value of growth for this record tested with SR leukemia: `CCN(CC)c1ccc2nc3c4ccccc4c(=O)cc-3n(-c3ccccc3)c2c1`
# output -5.63

# input Provide value of growth for this record tested with SR leukemia: CCCC(CCC)NCC(O)c1cc(-c2ccc(C(F)(F)F)cc2)nc(C(F)(F)F)c1 (stereo unspecified)
# output -61.4

# input Provide value of growth for this record tested with SR leukemia: `CCc1ccc(Nc2ncnc3c2cnn3-c2cccc(Br)c2)cc1`
# output 108

# input Provide value of growth for this record tested with SR leukemia: `Cc1cc(C)cc(CCCCCCCCCCCCCCCCCC(=O)O)c1`
# output 107

# input Provide value of growth for this record tested with SR leukemia: `N[C@@H](CO)C(=O)O`
# output 103

# input Provide value of growth for this record tested with SR leukemia: `c1ccc(C2=Nc3ccccc3SC2)cc1`
# output 107

# input Provide value of growth for this record tested with SR leukemia: `CNC(=O)c1cc(Oc2ccc(NC(=O)c3nc(S(C)(=O)=O)n(C)c3-c3ccc(F)cc3)cc2)ccn1`
# output 60.2

# input Provide value of growth for this record tested with SR leukemia: `CN1CCN(Cc2ccc(NC(=O)c3cncc(C#Cc4ncc5ccccn45)c3)cc2C(F)(F)F)CC1`
# output 15.6

# input Provide value of growth for this record tested with SR leukemia: `O=c1c2sc3ncc(Cl)cc3c2nnn1-c1cccc(Cl)c1`
# output 77.7

# input Provide value of growth for this record tested with SR leukemia: `Cc1ccc(-c2cnc3sc4ccc(Cl)cc4n23)cc1`
# output 111

###

Field: growth. Provide a value for each of the molecules that follow.
System: SN12C renal
Assay: NCI-60 one-dose screen, 48 h (100 = growth as untreated, 0 = no growth, -100 = all killed)
Conditions: 10 µM unless noted
The panel holds about 83,000 compounds, 20% with a hit somewhere; the sample as a whole holds those more often.
The response must be a number in % with no trailing unit.

# input Form field: reported growth of `CCOc1cccc(/C=N/NC(=O)Cc2ccc(Nc3ccnc(C(F)(F)F)c3)cc2)c1O`
# output 43

# input Form field: reported growth of `CC(C)(C)CC(C)(C)NCc1cc(C(C)(C)C)cc(CNC(C)(C)CC(C)(C)C)c1O`
# output 69.3

# input Form field: reported growth of `O=C(Cc1ccc(Nc2ccnc(C(F)(F)F)c2)cc1)N/N=C/c1ccccc1O`
# output 36.1

# input Form field: reported growth of `N=C(N)c1ccc(-c2ccc(-c3cc(Cl)cc(Cl)c3)o2)nc1`
# output -79.9

# input Form field: reported growth of `CCCNC(=S)N/N=C(\C)c1ccccn1`
# output 31.6

# input Form field: reported growth of `Cc1cc(C)cc(CCCCCCCCCCCCCCCCCC(=O)O)c1`
# output 106

# input Form field: reported growth of CC(C)(C)NC(=O)C(OC(=O)C1CCc2cc(F)ccc2O1)c1ccccc1Cl (stereo not given)
# output 101

# input Form field: reported growth of `CCCCn1c(-c2ccc(F)cc2)nc2cc(OC)c(OC)cc2c1=O`
# output 91.3

# input Form field: reported growth of CCN(CC)CCCC(C)Nc1cnc(C(=O)Nc2cccc3ccc(OC)nc23)cn1 (stereo not given)
# output 78.5

# input Form field: reported growth of O=C(C(Br)C(Br)c1ccccc1)C(Br)C(Br)c1ccccc1 (stereo not given)
# output -30.5
